// data source = BindingDB's records for doi:10.1021/jm00362a020

MEASUREMENT TARGET: Glycolate oxidase (Sus scrofa)
ASSAY NOTES: In vitro inhibition of porcine Glycolate oxidase
Cut-off 0.6 µM on IC50: below means Satisfied, at or above means Not satisfied.

Answered cases to consult:
1. CSc1ccc(-c2ccc(C(=O)CC(=O)C(=O)O)cc2)cc1 | Satisfied
2. O=C(O)C(=O)CC(=O)c1ccc(-c2ccc(SCC3(O)COc4ccccc4OC3)cc2)cc1 | Satisfied
3. O=C(O)C(=O)CC(=O)c1ccc(-c2ccc(Br)cc2)cc1 | Satisfied
4. O=C(O)C(=O)CC(=O)c1ccc(-n2c(-c3ccccc3)cc3ccccc32)cc1 | Satisfied
5. O=C(C=Cc1ccccc1)CC(=O)C(=O)O | Not satisfied
6. O=C(O)C(=O)CC(=O)c1ccc(-c2ccc(SCc3ccccc3)cc2)cc1 | Satisfied
7. CC1=C(C=CC(=O)CC(=O)C(=O)O)C(C)(C)CCC1 | Not satisfied

Turning now to a further record.
Hi there! Is IC50 for O=C(O)C(=O)CC(=O)c1ccc(C2CCCc3ccccc32)cc1 (centres undefined) below 0.6 µM, do you know?
Not satisfied
